Can you tell me Abs 630 (100 nM) for the items I'm about to list?
Target: T1, human IL-10 receptor (hIL-10R alpha and beta chains) on HEK-Blue IL-10 reporter cells (human, UniProt Q13651 22-578; Q08334 20-325)
T1 sequence 1: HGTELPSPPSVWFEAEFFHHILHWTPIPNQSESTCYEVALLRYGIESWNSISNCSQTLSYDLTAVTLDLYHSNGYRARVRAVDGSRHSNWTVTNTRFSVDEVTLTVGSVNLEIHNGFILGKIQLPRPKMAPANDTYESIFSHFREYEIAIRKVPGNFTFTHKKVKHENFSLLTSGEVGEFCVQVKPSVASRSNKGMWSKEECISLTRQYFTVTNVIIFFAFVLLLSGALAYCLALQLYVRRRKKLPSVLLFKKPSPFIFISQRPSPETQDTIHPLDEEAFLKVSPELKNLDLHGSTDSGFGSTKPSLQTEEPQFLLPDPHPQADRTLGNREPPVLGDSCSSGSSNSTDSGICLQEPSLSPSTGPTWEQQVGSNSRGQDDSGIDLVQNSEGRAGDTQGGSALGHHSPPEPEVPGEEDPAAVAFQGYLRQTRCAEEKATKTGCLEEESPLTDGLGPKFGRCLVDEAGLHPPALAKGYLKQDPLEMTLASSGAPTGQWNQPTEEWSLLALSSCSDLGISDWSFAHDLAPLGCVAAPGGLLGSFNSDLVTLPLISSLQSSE
T1 sequence 2: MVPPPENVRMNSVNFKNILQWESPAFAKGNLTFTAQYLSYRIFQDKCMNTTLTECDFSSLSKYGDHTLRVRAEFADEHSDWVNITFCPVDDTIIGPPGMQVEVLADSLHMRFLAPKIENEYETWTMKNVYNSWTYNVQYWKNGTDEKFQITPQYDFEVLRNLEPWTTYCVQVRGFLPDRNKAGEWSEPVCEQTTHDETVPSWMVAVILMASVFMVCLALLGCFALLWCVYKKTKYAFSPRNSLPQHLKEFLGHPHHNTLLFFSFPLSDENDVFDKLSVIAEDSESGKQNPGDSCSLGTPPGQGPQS
Assay: cell-based or functional assay
Use Abs 630 as the unit, but write only the number.

**Q:** Reported Abs 630 (100 nM) for IL10R binding molecule of SEQ ID NO: 329 (bispecific antibody) QVQLQESGGGSVQAGGSLRLSCTVSRYTASVNYMGWFRQAPGKEREGVATIFTGAGTTYYANSVKGRFTISRDNAKNTAYLQMNSLKPEDTAIYYCAVDFRGGLLYRPAYEYTYRGQGTQVTVSSGGGSQVQLQESGGGSVQAGGSLRLSCAVSGYAYSTYCMGWFRQAPGKEREGVAAIDSGGSTSYADSVKGRFTISKDNAKNTLYLRMNSLKPEDTAMYYCAAVPPPPDGGSCLFLGPEIKVSKADFRYWGQGTQVTVSSASHHHHHH : what is it?
**A:** 0.39

**Q:** Please give the result for IL10R binding molecule of SEQ ID NO: 337 (bispecific antibody) QVQLQESGGGSVEAGGSLRLSCAASGYTHSSYCMGWFRQAPGKEREGVAAIDVDGSTTYADSVKGRFTISKDNAKNTLYLQMNSLKPEDTGMYYCAAEFADCSSNYFLPPGAVRYWGQGTQVTVSSGGGSQVQLQESGGGSVQAGGSLRLSCTVSGYTYSSNCMGWFRQAPGKEREGVATIYTGGGNTYYADSVKGRFTISQDNAKNTVYLQMNNLKPEDTAMYYCAAEPLSRVYGGSCPTPTFDYWGQGTQVTVSSASHHHHHH too.
**A:** 0.4

**Q:** # repeat for IL10R binding molecule of SEQ ID NO: 282 (bispecific antibody) QVQLQESGGGSVQAGGSLRLSCAVSGYAYSTYCMGWFRQAPGKEREGVAAIDSGGSTSYADSVKGRFTISKDNAKNTLYLRMNSLKPEDTAMYYCAAVPPPPDGGSCLFLGPEIKVSKADFRYWGQGTQVTVSSGGGSQVQLQESGGGSVQAGGSLRLSCAASGYSYSSYCMGWFRQAPGKEREGVATIDSDGMTRYADSVKGRFTISKDNAKNTLYLQMNSLKPEDTAMYYCAAPLYDCDSGAVGRNPPYWGQGTQVTVSSASHHHHHH
**A:** 0.36

**Q:** Now consider IL10R binding molecule of SEQ ID NO: 322 (bispecific antibody) QVQLQESGGGSVQAGGSLRLSCAASRYTYNSYCMGWFRQAPGKEREGVATIDSDGMTRYADSVKGRFTISKDNAKNTLYLQMNSLKPEDTAMYYCAADADCTIAAMTTNPLGQGTQVTVSSGGGSQVQLQESGGGSVQAGGSLRLSCAVSGYAYSTYCMGWFRQAPGKEREGVAAIDSGGSTSYADSVKGRFTISKDNAKNTLYLRMNSLKPEDTAMYYCAAVPPPPDGGSCLFLGPEIKVSKADFRYWGQGTQVTVSSASHHHHHH and answer again.
**A:** 0.41

**Q:** Entry IL10R binding molecule of SEQ ID NO: 345 (bispecific antibody) QVQLQESGGGSVQAGGSLRLSCAASGYSYSSYCMGWFRQAPGKEREGVATIDSDGMTRYADSVKGRFTISKDNAKNTLYLQMNSLKPEDTAMYYCAAPLYDCDSGAVGRNPPYWGQGTQVTVSSGGGSQVQLQESGGGSVQAGGSLRLSCGASGYTYSSYCMGWFRQVPGKEREGVAVIDSDGSTSYADSVKGRFTISKDNGKNTLYLQMNSLKPEDTAMYYCAADLGHYRPPCGVLYLGMDYWGKGTQVTVSSASHHHHHH please
**A:** 0.44
